# System: HLA-A*31:01
# Procedure Text: IEDB peptide-MHC binding, purified MHC/direct/fluorescence; filed as Kd, often an IC50 or EC50 that approximates it; bounds were set here for any values at or beyond the usual limits of such assays
# Applied Conditions: source organism: Cryptosporidium hominis
pKd: −log10 of the molar value.
Quantity Kind: pKd

FMKSRVYSI yielded pKd of ≤ 4.70

----------
# System: HLA-A*26:01
# Procedure Text: IEDB peptide-MHC binding, purified MHC/competitive/radioactivity; filed as Kd, often an IC50 or EC50 that approximates it; bounds were set here for any values at or beyond the usual limits of such assays
# Applied Conditions: source organism: Mammarenavirus lassaense
Quantity Kind: Kd

Recorded Kd, per entry:
Residue Sequence	Kd
AGFAAGLTY	≥ 61.8 µM
YFESYVRPFV	≥ 46.1 µM

Proceeding to the next sequence to report its Kd.
ASPILRFLY yielded Kd of 9.66 µM

----------
# System: HLA-B*39:01
# Procedure Text: IEDB peptide-MHC binding, purified MHC/direct/fluorescence; filed as Kd, often an IC50 or EC50 that approximates it; bounds were set here for any values at or beyond the usual limits of such assays
# Applied Conditions: source organism: Influenza A virus (A/quail/Hong Kong/FY298/00(H9N2))
pKd: −log10 of the molar value.
Quantity Kind: pKd

TKDAERGKL yielded pKd of ≤ 4.70

----------
# System: HLA-C*12:03
# Procedure Text: IEDB peptide-MHC binding, purified MHC/direct/fluorescence; filed as Kd, often an IC50 or EC50 that approximates it; bounds were set here for any values at or beyond the usual limits of such assays
# Applied Conditions: source organism: Camelpox virus M-96
Quantity Kind: Kd

LMDENTYAM yielded Kd of ≥ 20 µM

----------
# System: HLA-A*26:01
# Procedure Text: IEDB peptide-MHC binding, purified MHC/competitive/radioactivity; filed as Kd, often an IC50 or EC50 that approximates it; bounds were set here for any values at or beyond the usual limits of such assays
# Applied Conditions: source organism: Dengue virus 3 Martinique/1243/1999
Quantity Kind: Kd (µM)
# output: bare number, implied unit µM

Residue Sequence	Quantity Kind	Recorded Value
ETYQLWTALI	Kd	0.114

CVIASSGMLW yielded Kd of 1.22

----------
# System: HLA-A*02:01
# Procedure Text: IEDB peptide-MHC binding, purified MHC/competitive/fluorescence; bounds were set here for any values at or beyond the usual limits of such assays
# Applied Conditions: source organism: Porphyromonas gingivalis
Quantity Kind: pIC50
A value of pIC50 is the negative decimal logarithm of a concentration given in moles per litre.

KLAGGVAVL yielded pIC50 of 6.92

----------
# System: HLA-B*73:01
# Procedure Text: IEDB peptide-MHC binding, purified MHC/direct/fluorescence; filed as Kd, often an IC50 or EC50 that approximates it; bounds were set here for any values at or beyond the usual limits of such assays
# Applied Conditions: source organism: Mycobacterium tuberculosis str. Haarlem
Quantity Kind: Kd

QRIAVPVTK yielded Kd of ≥ 20 µM

----------
# System: HLA-B*15:01
# Procedure Text: IEDB peptide-MHC binding, purified MHC/competitive/fluorescence; filed as Kd, often an IC50 or EC50 that approximates it; bounds were set here for any values at or beyond the usual limits of such assays
# Applied Conditions: source organism: Vaccinia virus Copenhagen
Quantity Kind: Kd (nM)
# output: bare number, implied unit nM

MTRVTNNVY tested on HLA-B*15:01 gave Kd: 125

----------
# System: HLA-A*30:02
# Procedure Text: IEDB peptide-MHC binding, purified MHC/competitive/radioactivity; filed as Kd, often an IC50 or EC50 that approximates it; bounds were set here for any values at or beyond the usual limits of such assays
# Applied Conditions: source organism: Triticum aestivum
Quantity Kind: pKd
A value of pKd is the negative decimal logarithm of a concentration given in moles per litre.

Residue Sequence	pKd
VSFQQPLQQY	5.22

QFPGQQQPF yielded pKd of 6.73

----------
# System: HLA-C*07:02
# Procedure Text: IEDB peptide-MHC binding, purified MHC/direct/fluorescence; filed as Kd, often an IC50 or EC50 that approximates it; bounds were set here for any values at or beyond the usual limits of such assays
# Applied Conditions: source organism: Entamoeba histolytica HM-1:IMSS
Quantity Kind: pKd
A value of pKd is the negative decimal logarithm of a concentration given in moles per litre.

YRSMIAFKL yielded pKd of 7.35

----------
# System: HLA-B*44:02
# Procedure Text: IEDB peptide-MHC binding, purified MHC/competitive/radioactivity; filed as Kd, often an IC50 or EC50 that approximates it; bounds were set here for any values at or beyond the usual limits of such assays
# Applied Conditions: source organism: Dengue virus 2 Jamaica/1409/1983
Quantity Kind: Kd (nM)
# output: bare number, implied unit nM

Recorded Kd, per entry:
Residue Sequence	Kd (nM)
AMYADDTAGW	124
AEAIFKLTY	3.67
LELTDALAL	1700
EEREIPERSW	66.5
AELEDGAYRI	16

Proceeding to the next sequence to report its Kd.
VEPGQLKLNW yielded Kd of 389

----------
# System: HLA-A*29:02
# Procedure Text: IEDB peptide-MHC binding, purified MHC/competitive/fluorescence; filed as Kd, often an IC50 or EC50 that approximates it; bounds were set here for any values at or beyond the usual limits of such assays
# Applied Conditions: source organism: Streptococcus pneumoniae TIGR4
pKd: −log10 of the molar value.
Quantity Kind: pKd

YQVEGATRV yielded pKd of ≤ 4.70

----------
# System: HLA-A*68:02
# Procedure Text: IEDB peptide-MHC binding, purified MHC/competitive/radioactivity; filed as Kd, often an IC50 or EC50 that approximates it; bounds were set here for any values at or beyond the usual limits of such assays
# Applied Conditions: source organism: Dengue virus 1 Brazil/97-11/1997
Quantity Kind: Kd

GTSHNILVEV yielded Kd of 15 nM

----------
Catalogue of Kd readings, one per entry.
# System: HLA-A*26:01
# Procedure Text: IEDB peptide-MHC binding, purified MHC/competitive/radioactivity; filed as Kd, often an IC50 or EC50 that approximates it; bounds were set here for any values at or beyond the usual limits of such assays
# Applied Conditions: source organism: Mammarenavirus guanaritoense

Recorded Kd, per entry:
Residue Sequence	Kd
IRHLFGNYI	≥ 77.9 µM
VFQAKSAFV	≥ 77.9 µM
YSDPKRFFL	≥ 77.9 µM
GEKSRCYSLY	≥ 69.7 µM

YVQRFFLRV yielded Kd of ≥ 77.9 µM

----------
# System: HLA-A*80:01
# Procedure Text: IEDB peptide-MHC binding, purified MHC/competitive/fluorescence; filed as Kd, often an IC50 or EC50 that approximates it; bounds were set here for any values at or beyond the usual limits of such assays
# Applied Conditions: source organism: Xanthobacter autotrophicus Py2
pKd: −log10 of the molar value.
Quantity Kind: pKd

GQMYNMNTL yielded pKd of ≤ 4.70

----------
Catalogue of Kd readings, one per entry.
# System: HLA-B*48:01
# Procedure Text: IEDB peptide-MHC binding, purified MHC/direct/fluorescence; filed as Kd, often an IC50 or EC50 that approximates it; bounds were set here for any values at or beyond the usual limits of such assays
# Applied Conditions: source organism: Mycobacterium tuberculosis

Residue Sequence	System	Kd
RPRLWRSVI	HLA-B*48:01	≥ 20 µM

Proceeding to the next sequence to report its Kd.
QRIAVPVTK tested on HLA-B*48:01 gave Kd: ≥ 20 µM

----------
# System: HLA-B*18:01
# Procedure Text: IEDB peptide-MHC binding, purified MHC/competitive/fluorescence; bounds were set here for any values at or beyond the usual limits of such assays
# Applied Conditions: source organism: Homo sapiens
Catalogue of IC50 readings, one per entry.

Residue Sequence	IC50
KVADVDLAVPV	≥ 20 µM

GSSDFQVHFLK yielded IC50 of ≥ 20 µM

----------
# System: HLA-A*29:02
# Procedure Text: IEDB peptide-MHC binding, purified MHC/competitive/fluorescence; bounds were set here for any values at or beyond the usual limits of such assays
# Applied Conditions: source organism: Homo sapiens
Quantity Kind: IC50

Residue Sequence	System	IC50
KVADVDLAVPV	HLA-A*29:02	≥ 20000 nM

Proceeding to the next sequence to report its IC50.
GSSDFQVHFLK yielded IC50 of 1460 nM

----------
# System: HLA-B*53:01
# Procedure Text: IEDB peptide-MHC binding, purified MHC/competitive/radioactivity; filed as Kd, often an IC50 or EC50 that approximates it; bounds were set here for any values at or beyond the usual limits of such assays
# Applied Conditions: source organism: Dengue virus 2 Peru/IQT2913/1996
Quantity Kind: Kd

Recorded Kd, per entry:
Residue Sequence	Kd
LPVWLAYKV	157 nM
MIIMLIPTVM	≥ 27000 nM

Proceeding to the next sequence to report its Kd.
QPTELRYSW yielded Kd of 52.6 nM

----------
# System: HLA-B*40:01
# Procedure Text: IEDB peptide-MHC binding, purified MHC/competitive/fluorescence; filed as Kd, often an IC50 or EC50 that approximates it; bounds were set here for any values at or beyond the usual limits of such assays
# Applied Conditions: source organism: Listeria monocytogenes J0161
pKd: −log10 of the molar value.
Quantity Kind: pKd

AALEGLSGF yielded pKd of ≤ 5.30
